Experiment: ATG_DR4_LXR_CIS: Attagene CIS-FACTORIAL HepG2 Assay for human Liver X Receptor (LXR), DR4 submotif (AID 2282929)
Settings: HepG2 Attagene DR4 cis-reporter, mRNA transcription; actives raise or lower the signal
Active and inactive are the calls of the source. Rule for the calls: active = hit-call score of the fitted dose curve at least 0.9, where 1 is the maximum; inactive = score below 0.9.
measured.attribute: AC50

Quick check: AC50 of O=S(=O)(c1ccc(OCc2ccccc2)cc1)c1ccccc1O ? 33.4 µM (active)

Item: CCCCCCOC(=O)c1ccc(O)cc1 41.8 µM (active)

Item: CCCCCCCCCCCCOC(=O)c1cc(O)c(O)c(O)c1 6.4 µM (active)

Item: Cc1[nH]nc2c1N=C(c1ccccc1Cl)c1cc([N+](=O)[O-])ccc1N2 2.67 µM (active)

Item: CCCCCc1ccc(O)cc1 33 µM (active)

Item: OCCN1CN(CCO)CN(CCO)C1 63.4 µM (active)

Item: CS(=O)(=O)c1ccc([C@@H](CC2CCCC2)C(=O)Nc2cnccn2)cc1Cl 29.1 µM (active)

Item: CC1COCc2cc3c(cc21)C(C)(C)C(C)C3(C)C (stereo not drawn) 158 µM (active)

Item: O=C(O)CCC(F)(F)C(F)(F)C(F)(F)C(F)(F)C(F)(F)C(F)(F)F 100 µM (active)

Item: COc1ccccc1NC(=O)c1cc2ccccc2cc1O 41.9 µM (active)

Item: O=C1Cc2ccccc2N1c1c(Cl)cccc1Cl 66.4 µM (active)

Item: Cc1cc(Cc2cc(C)cc(C(C)(C)C)c2O)c(O)c(C(C)(C)C)c1 100 µM (active)

Item: O=C(Nc1ccc(Cl)c(Cl)c1)c1cc(Cl)cc(Cl)c1O 28.6 µM (active)

---

Target: Transcriptional activator Myb (Homo sapiens)
Test: ATG_Myb_CIS: Attagene CIS-FACTORIAL HepG2 Assay for human Myeloblastosis (Myb) Proto-Oncogene Transcription Factor (AID 2282986)
Conditions: HepG2 Attagene CIS-FACTORIAL Myb reporter transcription; actives raise or lower the signal
Active and inactive are the calls of the source. How the source made its calls: active means hit-call score of the fitted dose curve at least 0.9, where 1 is the maximum; inactive means score below 0.9.
// classify into active, inactive

Solved cases below.
{"columns": ["compound", "answer.label"],
 "data": [
  ["O=P(O)(O)CCC(F)(F)C(F)(F)C(F)(F)C(F)(F)C(F)(F)C(F)(F)C(F)(F)C(F)(F)F", "inactive"],
  ["CCOC=O", "inactive"],
  ["COCN(COC)c1nc(N(COC)COC)nc(N(COC)COC)n1", "inactive"],
  ["CCOC(C)=O", "inactive"],
  ["FC(F)=C(F)C(F)(F)C(F)(F)C(F)(F)C(F)F", "inactive"]
]}

Hi team, can someone confirm the assay call for O=C1OC(=O)C(F)(F)C1(F)F ? inactive

Item: O=C(OC(=O)C(F)(F)C(F)(F)F)C(F)(F)C(F)(F)F inactive

Item: CCC(=O)O inactive

Item: Nc1ccc(O)c(C(=O)O)c1 inactive

Item: Cc1cc(Cc2cc(C)cc(C(C)(C)C)c2O)c(O)c(C(C)(C)C)c1 active

Item: CCCCCC(C)OC(=O)COc1ccc(Cl)c2cccnc12 (centres undefined) inactive

Item: CCO[Si](C)(C)OCC inactive

Item: C=COC(=O)C(C)(C)CCCCCC inactive

Item: C[C@]12CC[C@@H]3c4ccc(O)cc4CC[C@H]3[C@@H]1C[C@@H](O)[C@@H]2O inactive

Item: Oc1c(Cl)cc(Cl)cc1Sc1cc(Cl)cc(Cl)c1O inactive

Item: CC(C)(C)c1ccc(O)c(O)c1 inactive

Item: CCOCCOCC inactive
